Tested system: NEK1 (human)
Experiment description: KINOMEscan competition binding
Condition notes: compound 10.0 µM
Experimental readout: kinase still bound, per cent of control (%)
Supply the numeric figure in %, leaving out any unit text.

Sample records with kinase still bound, per cent of control:
Smiles code: O=C1NC(=S)S/C1=C\c1ccc(-c2cncc3ccccc23)o1
kinase still bound, per cent of control [%]: 31
//
Smiles code: CN1C(=O)c2ccccc2N(C)c2nc(Nc3ccc(N4CCC(O)CC4)cc3)ncc21
kinase still bound, per cent of control [%]: 93
//
Smiles code: O=C1NC(=O)/C(=C/c2c[nH]c(=O)c(-c3ccc(N4CCNCC4)nc3)c2)S1
kinase still bound, per cent of control [%]: 73
//
Smiles code: COc1cc(N2CCN(C)CC2)ccc1Nc1ncc2c(n1)Nc1ccccc1NC2=O
kinase still bound, per cent of control [%]: 95
//
Smiles code: COc1cc(N2CCN(C)CC2)ccc1Nc1ncc2c(n1)N(C)c1sccc1C(=O)N2C
kinase still bound, per cent of control [%]: 77
//
Smiles code: COc1cc(N2CCC(O)CC2)ccc1Nc1ncc2c(n1)N1CCc3cccc(c31)C(=O)N2C
kinase still bound, per cent of control [%]: 60
//
Smiles code: N=C1NC(=O)/C(=C/c2ccc(-c3cncc4ccccc34)o2)S1
kinase still bound, per cent of control [%]: 33
//
Smiles code: CN1CCN(c2ccc(C(=O)Nc3ncc4c(n3)N(C)c3ccccc3C(=O)N4C)cc2)CC1
kinase still bound, per cent of control [%]: 100
//
Smiles code: CN1C(=O)c2ccccc2N(C)c2nc(NS(=O)(=O)c3ccc(N)cc3)ncc21
kinase still bound, per cent of control [%]: 100

Could you now consider this next compound?
# return recorded kinase still bound, per cent of control for entry "COc1cc(N2CCN(C)CC2)ccc1Nc1ncc2c(n1)N(C)c1ccccc1N(C)C2=O"
96

* * *

In this section we review reported kinase still bound, per cent of control values for a set of compounds.
Tested system: MYO3B (human)
Experiment description: KINOMEscan competition binding
Condition notes: compound 10.0 µM
The reply must contain the numeric value and, after it, the unit.

Before answering, review these 3 worked examples.
Smiles code: N=C1NC(=O)/C(=C/c2cccc(-c3ccc(S(N)(=O)=O)cc3)c2)S1
kinase still bound, per cent of control: 2.9%
--
Smiles code: COc1cc(N2CCN(C)CC2)ccc1Nc1ncc2c(n1)N(C)c1sccc1C(=O)N2C
kinase still bound, per cent of control: 52%
--
Smiles code: COc1cc(N2CCN(C)CC2)ccc1Nc1ncc2c(n1)Nc1ccccc1NC2=O
kinase still bound, per cent of control: 100%

Assign kinase still bound, per cent of control to the following record: "CN1C(=O)c2ccccc2N(C)c2nc(Nc3ccc(N4CCC(O)CC4)cc3)ncc21"
73%

Consider the compound "O=C1NC(=O)C(=Cc2ccc(-c3ccc([N+](=O)[O-])cc3)o2)C(=O)N1" and give its recorded kinase still bound, per cent of control.
28%

Supply recorded kinase still bound, per cent of control for "O=C1NC(=O)/C(=C/c2c[nH]c(=O)c(-c3ccc(N4CCNCC4)nc3)c2)S1" here.
74%

* * *

Recorded kinase still bound, per cent of control values for a group of molecules are listed next.
Tested system: RPS6KA1 KD2 (human)
Experiment description: KINOMEscan competition binding
Condition notes: compound 10.0 µM
Answer format: numeric, % implied, no suffix.

Sample answers from the record:
Molecule: CN1C(=O)c2ccccc2N(C)c2nc(NS(=O)(=O)c3ccc(N)cc3)ncc21
Readout number: 100
//
Molecule: N=C1NC(=O)/C(=C/c2ccc(-c3ccc4c(C(=O)Nc5ccc(N6CCNCC6)cc5)cccc4c3)o2)S1
Readout number: 17
//
Molecule: COc1cc(N2CCC(N3CCN(C)CC3)CC2)ccc1Nc1ncc2c(n1)N1CCCC1CC(=O)N2C (stereo not given)
Readout number: 28
//
Molecule: CCN1CCN(Cc2cc(NC(=O)c3cccc4cc(-c5ccc(/C=C6\SC(=O)NC6=O)o5)ccc34)cc(C(F)(F)F)c2)CC1
Readout number: 18
//
Molecule: COc1cc(N2CCN(C)CC2)ccc1Nc1ncc2c(n1)N(C)c1ccccc1N(C)C2=O
Readout number: 56
//
Molecule: COc1cc(C(=O)NC2CCN(C)CC2)ccc1Nc1ncc2c(n1)N(C1CCCC1)CCC(=O)N2C
Readout number: 25
//
Molecule: N=C1NC(=O)/C(=C/c2ccc(-c3cccc4cc[nH]c34)o2)S1
Readout number: 17
//
Molecule: COc1cc(N2CCN(C)CC2)ccc1Nc1ncc2c(n1)Nc1ccccc1NC2=O
Readout number: 43
//
Molecule: COc1cc(N2CCN(C)CC2)ccc1Nc1ncc2c(n1)N(C)c1ccccc1C(=O)N2
Readout number: 21

# ---- query molecule ----
Give RPS6KA1 KD2 (human) kinase still bound, per cent of control for the following molecule: "CC(C)Oc1cc(N2CCN(C)CC2)ccc1Nc1ncc2c(n1)N(C)c1ccccc1C(=O)N2"
14

* * *

Tested system: MARK4 (human)
Experiment description: KINOMEscan competition binding
Condition notes: compound 10.0 µM
Experimental readout: kinase still bound, per cent of control (%)
State just the number; it will be interpreted in %.

These solved cases illustrate the format of a correct answer.
Smiles code: CN1C(=O)c2ccccc2N(C)c2nc(Nc3ccc(N4CCC(O)CC4)cc3)ncc21
Experimental readout: kinase still bound, per cent of control
Readout number: 66
//
Smiles code: COc1cc(N2CCN(C)CC2)ccc1Nc1ncc2c(n1)Nc1ccccc1NC2=O
Experimental readout: kinase still bound, per cent of control
Readout number: 84
//
Smiles code: COc1cc(N2CCN(C)CC2)ccc1Nc1ncc2c(n1)N(C)c1ccccc1N(C)C2=O
Experimental readout: kinase still bound, per cent of control
Readout number: 63
//
Smiles code: O=C1NC(=O)/C(=C/c2c[nH]c(=O)c(-c3ccc(N4CCNCC4)nc3)c2)S1
Experimental readout: kinase still bound, per cent of control
Readout number: 100
//
Smiles code: COc1cc(N2CCN(C)CC2)ccc1Nc1ncc2c(n1)N(C)c1sccc1C(=O)N2C
Experimental readout: kinase still bound, per cent of control
Readout number: 59
//
Smiles code: CN1CCN(c2ccc(C(=O)Nc3ncc4c(n3)N(C)c3ccccc3C(=O)N4C)cc2)CC1
Experimental readout: kinase still bound, per cent of control
Readout number: 91
//
Smiles code: COc1cc(C(=O)NC2CCN(C)CC2)ccc1Nc1ncc2c(n1)N(C1CCCC1)CCC(=O)N2C(C)C
Experimental readout: kinase still bound, per cent of control
Readout number: 0
//
Smiles code: CN1C(=O)c2ccccc2N(C)c2nc(NS(=O)(=O)c3ccc(N)cc3)ncc21
Experimental readout: kinase still bound, per cent of control
Readout number: 93

--- query ---
Indicate its recorded kinase still bound, per cent of control; the molecule in question is "COc1cc(N2CCC(O)CC2)ccc1Nc1ncc2c(n1)N1CCc3cccc(c31)C(=O)N2C"
86

* * *

Each item that follows carries a reported kinase still bound, per cent of control.
Tested system: STK36 (human)
Experiment description: KINOMEscan competition binding
Condition notes: compound 10.0 µM
Give the value in % but do not write % after it.

Recorded results for 3 compounds are shown here.
Smiles code: COc1cc(N2CCN(C)CC2)ccc1Nc1ncc2c(n1)N(C)c1sccc1C(=O)N2C
kinase still bound, per cent of control [%]: 100

Smiles code: CN1C(=O)c2ccccc2N(C)c2nc(Nc3ccc(N4CCC(O)CC4)cc3)ncc21
kinase still bound, per cent of control [%]: 100

Smiles code: O=C1NC(=O)/C(=C/c2c[nH]c(=O)c(-c3ccc(N4CCNCC4)nc3)c2)S1
kinase still bound, per cent of control [%]: 85

Next:
Under STK36 (human): report kinase still bound, per cent of control of "COc1cc(N2CCN(C)CC2)ccc1Nc1ncc2c(n1)N(C)c1ccccc1N(C)C2=O" .
88

* * *

Tested system: PLK1 (human) (UniProt P53350)
Sequence (P53350 whole entry, looked up): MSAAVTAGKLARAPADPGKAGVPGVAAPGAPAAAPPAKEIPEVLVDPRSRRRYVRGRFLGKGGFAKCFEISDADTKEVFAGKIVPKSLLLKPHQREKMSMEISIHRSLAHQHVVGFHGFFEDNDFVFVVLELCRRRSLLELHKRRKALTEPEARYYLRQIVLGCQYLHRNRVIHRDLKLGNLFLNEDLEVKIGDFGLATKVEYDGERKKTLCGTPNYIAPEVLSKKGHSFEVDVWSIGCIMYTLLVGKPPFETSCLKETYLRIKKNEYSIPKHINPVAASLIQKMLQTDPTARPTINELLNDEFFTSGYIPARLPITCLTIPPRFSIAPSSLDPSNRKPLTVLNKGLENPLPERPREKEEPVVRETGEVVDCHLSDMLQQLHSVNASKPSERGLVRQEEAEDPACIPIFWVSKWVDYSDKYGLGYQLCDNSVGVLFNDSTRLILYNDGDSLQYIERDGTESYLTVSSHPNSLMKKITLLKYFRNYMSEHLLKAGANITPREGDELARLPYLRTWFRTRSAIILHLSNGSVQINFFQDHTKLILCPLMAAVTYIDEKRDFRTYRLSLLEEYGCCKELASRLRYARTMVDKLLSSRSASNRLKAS
Experiment description: KINOMEscan competition binding
Condition notes: compound 10.0 µM
Values of kinase still bound, per cent of control strictly less than 2% map to 1.0, and values of at least 2% map to 0.0.

Some solved cases for reference:
Compound: CN1C(=O)[C@H]2CCC[C@H]2N(C2CCCC2)c2nc(Nc3ccc4ncccc4c3)ncc21
Group: 1.0

Compound: CC(C)Oc1cc(N2CCC(O)CC2)ccc1Nc1ncc2c(n1)N1CCC[C@H]1CC(=O)N2C
Group: 0.0

Compound: COc1cc(C(=O)NC2CCN(C)CC2)ccc1Nc1ncc2c(n1)N(C1CCCC1)CC(C)C(=O)N2C (stereo not drawn)
Group: 0.0

Compound: CN1C(=O)c2ccccc2N(C)c2nc(Nc3ccc(N4CCC(O)CC4)cc3)ncc21
Group: 0.0

kinase still bound, per cent of control under 2%? Item: "Nc1cccc(-c2cc(/C=C3\SC(=O)NC3=O)c[nH]c2=O)c1"
1.0

kinase still bound, per cent of control under 2%? Item: "COc1cc(N2CCN(C)CC2)ccc1Nc1ncc2c(n1)N(C)c1sccc1C(=O)N2C"
0.0

Please check: kinase still bound, per cent of control for "CN1C(=O)CCN(C2CCCC2)c2nc(Nc3ccc(N4CCC(O)CC4)cn3)ncc21" , strictly under 2% or not?
0.0

Please state whether kinase still bound, per cent of control is below 2% for "COc1cc(N(C)CCCO)ccc1Nc1ncc2c(n1)N(C1CCCC1)CCC(=O)N2C"
1.0
